Data provenance is ChEMBL document CHEMBL1124217.

- Test system: Proteus vulgaris
- assayInfo: Inhibition of growth of Proteus vulgaris (CN329) measured as MIC compound/MIC Trimethoprim
- Format: functional
parameterMeasured: MIC ratio
Form field (numeric): enter value without unit.

smilesStr: COc1c(C)cc(Cc2cnc(N)nc2N)cc1C
systemUnderTest: Proteus vulgaris
parameterMeasured: MIC ratio
recordedNumber: 300

smilesStr: CC(C)c1cc(Cc2cnc(N)nc2N)cc(C(C)C)c1O
systemUnderTest: Proteus vulgaris
parameterMeasured: MIC ratio
recordedNumber: 300

smilesStr: CCc1cc(Cc2cnc(N)nc2N)cc(CC)c1OC
systemUnderTest: Proteus vulgaris
parameterMeasured: MIC ratio
recordedNumber: 30

query: Give me measured MIC ratio, please, for this compound: `CCCc1cc(Cc2cnc(N)nc2N)cc(CCC)c1O`
result: 30

query: Supply MIC ratio value. Item: `Cc1cc(Cc2cnc(N)nc2N)cc(C)c1O`
result: 3

query: Supply recorded MIC ratio for `CCc1cc(Cc2cnc(N)nc2N)cc(CC)c1O` here.
result: 10

query: Indicate its recorded MIC ratio; the compound in question is `CCCc1cc(Cc2cnc(N)nc2N)cc(CC)c1OC`
result: 30

query: Determine its reported MIC ratio: `Cc1cc(Cc2cnc(N)nc2N)cc(C(C)(C)C)c1O`
result: 100

query: Tell us which MIC ratio value is on record for `CCCc1cc(Cc2cnc(N)nc2N)cc(CC)c1O`
result: 3

query: State its MIC ratio for this compound: `CCCc1cc(Cc2cnc(N)nc2N)cc(CCC)c1OC`
result: 30

query: Provide MIC ratio value for the following compound: `CCc1cc(Cc2cnc(N)nc2N)cc(C)c1OC`
result: 3
